Just for reference, PubChem BioAssay (Tox21) is where these values come from.

- PROTOCOL: A CellTox Green Cytotoxicity Assay to monitor cytotoxicity in HEK293 cells - 0 hour (AID 1224869); note: % is set by controls: 0 for no effect and ±100 for the full control effect; nearly all actives have a fitted effect of over 50% in size
- ASSAY_CONTEXT: CellTox Green fluorescence; series mostly up to 76.8 µM
The source made the active and inactive calls. Calls come from the whole dose curve; as a rule, active = well fitted activation curve with a large enough effect in the repeat runs; inconclusive = weak or mixed curves; inactive = flat fitted curve, though single readings scatter.
METRIC_NAME: cytotoxicity

Example entries and their recorded answers appear below.
O=c1[nH]c(=O)c2[nH]c(=O)[nH]c2[nH]1
-14.8% [at 6.97 µM] (inactive)
C=C[Si](C)(C)O[Si](C)(C)C=C
inactive
CC(=O)OC(C)(C)Cc1ccccc1
inactive
CC1=NN(c2ccc(S(=O)(=O)O)cc2)C(=O)C1N=Nc1ccccc1 (configuration not stated)
inactive
O=c1[nH]c(=O)c2ccccc2o1
inactive

Below are some compounds; for each one, tell me its cytotoxicity.
1. CC(=O)OC(C)c1ccccc1 (configuration not stated)
2. O=C(O)C(=O)Nc1cccc(-c2nn[nH]n2)c1

Output line:
1: inactive; 2: inactive

====

- PROTOCOL: qHTS assay to identify small molecule antagonists of the estrogen receptor alpha (ER-alpha) signaling pathway - cell viability counter screen (AID 743074);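 note: HEK293 cells carrying ER-alpha-UAS-bla reporter stimulated with 17beta-estradiol; % is set by controls: 0 for no effect and ±100 for the full control effect; nearly all actives have a fitted effect of over 45% in size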
- ASSAY_CONTEXT: ERalpha-bla HEK293 viability, CellTiter-Glo luminescence, 18 h; series mostly up to 69.4 µM
Inconclusive results are not listed. The source made the active and inactive calls. The call rests on the fitted dose curve.
METRIC_NAME: outcome

Worked examples follow.
Cc1nc([N+](=O)[O-])cn1-c1ccc([N+](=O)[O-])cc1
inactive
CCC1COC(=O)O1 (centres undefined)
inactive
CCC(CO)CO
inactive
NC(Cc1c[nH]c2ccccc12)C(=O)O (centres undefined)
inactive
c1ccc(CNc2ncnc3nc[nH]c23)cc1
inactive

Could you report outcome for every entry in the following list?
1. CCCCC(CC)COC(=O)c1ccccc1 (centres undefined)
2. NC(=O)C1(N2CCCCC2)CCN(CCCC(=O)c2ccc(F)cc2)CC1

Output line:
["inactive", "inactive"]

Batch request: outcome per item, same order as input.
1. CO[Si](CCCCl)(OC)OC
2. CCCOCCOCCOCCO
3. C=C(C)C(=O)OC1CC(C)CC(C)(C)C1 (centres undefined)
4. Cc1ccc(S(=O)(=O)NC(=O)NC2CCCCCCC2)cc1

Output line:
["inactive", "inactive", "inactive", "inactive"]

I have 3 compounds here; please give me outcome for each one.
1. O=C(Nc1cccc(C2=NCCN2)c1)Nc1cccc(C2=NCCN2)c1
2. Cc1cccc(Nc2ccncc2S(=O)(=O)NC(=O)NC(C)C)c1
3. CC(C)SCc1ccco1

Output line:
["inactive", "inactive", "inactive"]

====

- PROTOCOL: qHTS assay to identify small molecule agonists of the retinoic acid receptor (RAR) signaling pathway (AID 1159553); for activation: % is set by controls: 0 for no effect and ±100 for the full control effect
- ASSAY_CONTEXT: C3RL4 RARE luciferase reporter, agonist, 6 h
- From the text: National Center for Advancing Translational Sciences [NCATS] NIH Chemical Genomics Center [NCGC] U.S. Environmental Protection Agency [EPA] National Institutes of Environmental Health Sciences [NIEHS] National Toxicology Program [NTP] […]
Results filed as inconclusive are left out. Activity calls are given as the source filed them. Calls come from the whole dose curve; as a rule, active = well fitted activation curve with a large enough effect in the repeat runs; inconclusive = weak or mixed curves, or effect the other way; inactive = no such curve, though single readings can be large or run the other way.
Could you please pick one outcome from this set? active, inactive

Past entries and their recorded results:
Cc1ccccc1C
inactive
C[CH2][Ge]([Cl])([CH2]C)[CH2]C
inactive
CCOC(=O)OCC/C(SC(=O)OCC)=C(\C)N(C=O)Cc1cnc(C)nc1N
inactive
Nc1cc(C(=O)O)ccc1Cl
inactive
O=C1OC(=O)c2ccccc21
inactive
Cc1cc(O)c2c(c1)C(=O)c1cccc(O)c1C2=O
inactive

Input line: Tell me the recorded outcome of this test for CN(C)CCCNCCC#N .
Output line: inactive

Input line: Same for CC(C)COC(=O)CCCCC(=O)OCC(C)C
Output line: inactive

Input line: Next entry: CCCCC(CC)CNC(=O)CC(C)OC(=O)CCC(=O)O (centres undefined)
Output line: active
